Item-by-item account of MCH
Organism: Rattus norvegicus
Assay: Open TG-GATES - Regimen: Daily Repeat
Type: toxicity, organism-based, Sprague-Dawley
Set-up: regimen Daily Repeat, gender Male, age 6 weeks
Particulars: in vivo, po, 0 mg/kg, […], tissue Blood, route gavage, dose level Control, time 28 day
Result type: MCH (pg)

>>> reported_measurement("CN(C)CCN(Cc1cccs1)c1ccccn1")
19.5
>>> reported_measurement("NNC(=O)c1ccncc1")
19.7
>>> reported_measurement("CCOC(=O)CCC(=O)O[C@H]1[C@H](O[C@@H]2[C@@H](C)[C@H](O[C@H]3C[C@@](C)(OC)[C@@H](O)[C@H](C)O3)[C@@H](C)C(=O)O[C@H](CC)[C@@](C)(O)[C@H](O)[C@@H](C)C(=O)[C@H](C)C[C@@]2(C)O)O[C@H](C)C[C@@H]1N(C)C [ERYTHROMYCIN ETHYLSUCCINATE]")
19.4
>>> reported_measurement("CCCNC(=O)NS(=O)(=O)c1ccc(Cl)cc1 [CHLORPROPAMIDE]")
19
>>> reported_measurement("CCOc1ccc(NC(=O)CC(C)O)cc1 (stereo not given)")
19.7
